Below, each of the binders is paired with its reported koff value.
Molecular target: T1, recombinant human TIGIT (human, UniProt Q495A1 22-141, limits assumed)
T1 construct: recombinant human TIGIT used in Carterra SPR; also called hTIGIT
T1 sequence (looked up): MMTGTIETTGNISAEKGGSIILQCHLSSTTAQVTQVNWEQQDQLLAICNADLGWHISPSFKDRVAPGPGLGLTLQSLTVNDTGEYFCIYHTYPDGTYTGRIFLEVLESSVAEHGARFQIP
Assay: SPR Carterra, average
endpoint-label: koff (s⁻¹)

INSERT INTO assay_data (binder, endpoint_label, reading) VALUES
  ('TIGIT-SC141 (Fc fusion, VHH-Fc fusion in assay) VHH: EVQLVESGGGLVQPGGSLRLSCAASGNAFSSSVMGWFRQAPGKEREFVAGIWRSGSLKAYADSVKGRFTISADNSKNTAYLQMNSLRPEDTAVYYCARAYVGMTTVTFDHWGQGTLVTVSS', 'koff', 0.151),
  ('TIGIT-SC1 (Fc fusion, VHH-Fc fusion in assay) VHH: EVQLVESGGGLVQPGGSLRLSCAASGFTLNDYAMGWFRQAPGKERELVAWIARYDGSTLYADSVKGRFTISADNSKNTAYLQMNSLKPEDTAVYYCARVDWALNAAPFDYWGQGTLVTVSS', 'koff', 0.000165),
  ('TIGIT-SC99 (Fc fusion, VHH-Fc fusion in assay) VHH: EVQLVESGGGLVQPGGSLRLSCAASGSIFSMNTMGWFRQAPGKEREFVGAINWSGGSTIYADSVKGRFTISADNSKNTAYLQMNSLKPEDTAVYYCARWDYDILTNYYWLEYWGQGTLVTVSS', 'koff', 0.00428),
  ('TIGIT-SC82 (Fc fusion, VHH-Fc fusion in assay) VHH: EVQLVESGGGLVQPGGSLRLSCAASGSMSSNYAMGWFRQAPGKEREFVAAIDWSGGNTYYADSVKGRFTISADNSKNTAYLQMNSLKPEDTAVYYCAKWFYYGSGLYTLDVWGQGTLVTVSS', 'koff', 0.00324),
  ('TIGIT-SC131 (Fc fusion, VHH-Fc fusion in assay) VHH: EVQLVESGGGLVQPGGSLRLSCAASGDTSEIYDMGWFRQAPGKEREFVAITWNSGRIGSNGFATYADSVKGRFTISADNSKNTAYLQMNSLKPEDTAVYYCARWAVGQAFDLWGQGTLVTVSS', 'koff', 0.0278),
  ('TIGIT-SC2 (Fc fusion, VHH-Fc fusion in assay) VHH: EVQLVESGGGLVQPGGSLRLSCAASGFTLSSNWMGWFRQAPGKEREMVAAIDWSGGSALYADSVKGRFTISADNSKNTAYLQMNSLKPEDTAVYYCAKDALSNSARFDHWGQGTLVTVSS', 'koff', 0.00274),
  ('TIGIT-SC149 (Fc fusion, VHH-Fc fusion in assay) VHH: EVQLVESGGGLVQPGGSLRLSCAASGFTLENNMMGWFRQAPGKEREFVAAISRSGTLKAYADSVKGRFTISADNSKNTAYLQMNSLKPEDTAVYYCAKVQGPYCSGGSCYLYTFDLWGQGTLVTVSS', 'koff', 0.0043),
  ('TIGIT-SC162 (Fc fusion, VHH-Fc fusion in assay) VHH: EVQLVESGGGLVQPGGSLRLSCAASGNTFSGGFMGWFRQAPGKEREWVASVLRGGYTWYADSVKGRFTISADNSKNTAYLQMNSLKPEDTAVYYCTTDRAIGVRPLFDHWGQGTLVTVSS', 'koff', 0.0203),
  ('TIGIT-SC212 (Fc fusion, VHH-Fc fusion in assay) VHH: EVQLVESGGGLVQPGGSLRLSCAASGFLFDSYAMGWFRQAPGKEREFVAAIWRSGTLKAYADSVKGRFTISADNSKNTAYLQMNSLKPEDTAVYYCARWVGASGDYWIDYWGQGTLVTVSS', 'koff', 0.00126),
  ('TIGIT-SC56 (Fc fusion, VHH-Fc fusion in assay) VHH: EVQLVESGGGLVQPGGSLRLSCAASGNTFSGGFMGWFRQAPGKEREWVASVLRGGYTWYADSVKGRFTISADNSKNTAYLQMNSLKPEDTAVYYCAHSKGYNWFDPWGQGTLVTVSS', 'koff', 0.000801),
  ('TIGIT-SC92 (Fc fusion, VHH-Fc fusion in assay) VHH: EVQLVESGGGLVQPGGSLRLSCAASGSTIENYAMGWFRQAPGKEREFVAAIDWSGGSTYYADSVKGRFTISADNSKNTAYLQMNSLKPEDTAVYYCARWRSIWSGYDDYYYMDVWGQGTLVTVSS', 'koff', 0.00289),
  ('TIGIT-SC86 (Fc fusion, VHH-Fc fusion in assay) VHH: EVQLVESGGGLVQPGGSLRLSCAASGIIASDSAMGWFRQAPGKEREFVAAIRWSGKETWYADSVKGRFTISADNSKNTAYLQMNSLKPEDTAVYYCARWGGVTFGGVYPLEYWGQGTLVTVSS', 'koff', 0.00212),
  ('TIGIT-SC185 (Fc fusion, VHH-Fc fusion in assay) VHH: EVQLVESGGGLVQPGGSLRLSCAASGRTFSFMGWFRQAPGKEREWVASVLRGGYTWYADSVKGRFTISADNSKNTAYLQMNSLKPEDTAVYYCTTDRGYNWNYDWGQGTLVTVSS', 'koff', 0.00621),
  ('TIGIT-SC171 (Fc fusion, VHH-Fc fusion in assay) VHH: EVQLVESGGGLVQPGGSLRLSCAASGFTFDRSWMGWFRQAPGKEREWVASVLRGGYTWYADSVKGRFTISADNSKNTAYLQMNSLKPEDTAVYYCATERRLGVWGQGTLVTVSS', 'koff', 0.00441),
  ('TIGIT-SC214 (Fc fusion, VHH-Fc fusion in assay) VHH: EVQLVESGGGLVQPGGSLRLSCAASGFTFGDSWMGWFRQAPGKEHEFVAAIWRSGTLKAYADSVKGRFTISADNSKNTAYLQMNSLKPEDTAVYYCTSYDAVAGTRDFWGQGTLVTVSS', 'koff', 0.0248);

Every entry's value here was drawn from patent US20260184782A1.
